Molecular target: Glucagon-like peptide 1 receptor (Homo sapiens) (UniProt P43220)
Sequence (P43220 whole entry, looked up): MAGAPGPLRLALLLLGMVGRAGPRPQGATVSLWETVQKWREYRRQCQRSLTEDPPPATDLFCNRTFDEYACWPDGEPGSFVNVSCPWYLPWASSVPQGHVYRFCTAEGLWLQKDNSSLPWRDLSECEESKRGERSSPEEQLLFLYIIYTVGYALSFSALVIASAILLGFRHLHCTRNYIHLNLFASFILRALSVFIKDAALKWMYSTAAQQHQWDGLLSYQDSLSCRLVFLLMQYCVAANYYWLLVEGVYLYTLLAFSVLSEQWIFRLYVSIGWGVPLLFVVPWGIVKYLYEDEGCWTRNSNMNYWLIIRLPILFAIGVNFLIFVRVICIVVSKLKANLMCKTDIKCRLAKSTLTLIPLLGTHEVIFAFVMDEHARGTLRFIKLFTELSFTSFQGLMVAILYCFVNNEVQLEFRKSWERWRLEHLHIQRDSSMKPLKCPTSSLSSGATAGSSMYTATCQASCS
Experiment: qHTS of GLP-1 Receptor Inverse Agonists (Inhibition Mode); also: nearly all actives have a fitted effect of over 55% in size
Conditions: HEK293 GLP-1R CRE-luciferase, luminescence, 24 h, GLP-1R form is constitutively active; series mostly up to 38.3 µM
Experimental: The overall goal of this project was to develop a novel assay for discovering small molecule ligands for class B1 G protein-coupled receptors (GPCRs). […] The assay was developed using a cell-based functional readout. […] Six ul of cell suspension (200 cells/uL in DMEM + 10% Nu serum + 1% pen-strep) is dispensed in a white solid 1536-well plate. […] A luminescence read is obtained on the PerkinElmer Viewlux after 12 min incubation at room temperature.
In all, about 410,000 compounds went through this assay and about 6,400 (1.6%) were called active. Not shown: some 20% with an inconclusive outcome. Calls follow the shape of the dose curve; as a rule, active = well fitted inhibition curve with a large enough effect; inconclusive = small, poorly fitted or top-dose-only effect; inactive = no such curve, though single readings can be large or run the other way. What follows is part of a selection rich in actives, with near analogues and random picks from the rest.
Outcome field: choose from 1 (yes) for active, 0 (no) for inactive

Inquiry: Hello, I am checking results. What call was entered for Cc1cccc(CN2CCN(C3CN(Cc4cn(Cc5ccccc5F)nn4)S(=O)(=O)C3)CC2)c1 (stereo not given) ?
Reply text: 0 (no)

Inquiry: Hello, I am checking results. What call was entered for Cc1oc2c(F)c(F)c(F)c(F)c2c1S(=O)(=O)Nc1cccc(C(F)(F)F)c1 ?
Reply text: 1 (yes)

Inquiry: Hello, I am checking results. What call was entered for COc1ccc(CNC(=O)CN2C(=O)c3ccccc3S2(=O)=O)cc1 ?
Reply text: 0 (no)

Inquiry: Hello, I am checking results. What call was entered for CCSc1ncc(Cl)c(C(=O)Nc2c(C(=O)c3ccccc3)oc3ccccc23)n1 ?
Reply text: 0 (no)

Inquiry: Hello, I am checking results. What call was entered for O[C@H]1CN(Cc2cccs2)[C@@H](c2ccc(Cl)cc2)C[C@@H]1n1cc(C2CC2)nn1 ?
Reply text: 0 (no)

Inquiry: Hello, I am checking results. What call was entered for O=C1c2ccccc2S(=O)(=O)N1Cc1c(F)cccc1Cl ?
Reply text: 0 (no)

Inquiry: Hello, I am checking results. What call was entered for C[C@@H]1C(c2ccc(F)cc2)=NN(c2ccc(Br)cc2)[C@H]1C(=O)N1CCOC1=O ?
Reply text: 1 (yes)

Inquiry: Hello, I am checking results. What call was entered for Cc1ccc2c(c1)N(C(=O)Nc1ccc(Br)cc1F)CCO2 ?
Reply text: 0 (no)

Inquiry: Hello, I am checking results. What call was entered for O=C(COc1ccc(S(=O)(=O)Nc2cccc(C(F)(F)F)c2)cc1)N1CCOCC1 ?
Reply text: 0 (no)

Inquiry: Hello, I am checking results. What call was entered for O=c1c2cc(Br)ccc2nc(-c2cccc(Cl)c2)n1O ?
Reply text: 0 (no)

====

Target: Glucagon-like peptide 1 receptor (Homo sapiens) (UniProt P43220)
Assay: qHTS of GLP-1 Receptor Inverse Agonists (Inhibition Mode); also: nearly all actives have a fitted effect of over 55% in size; as to activity change, negative = inhibition: % is scaled to controls: 0 for no effect and ±100 for the full control effect
Conditions: HEK293 GLP-1R CRE-luciferase, luminescence, 24 h, GLP-1R form is constitutively active; series mostly up to 38.3 µM
About 6,400 (1.6%) of roughly 410,000 compounds were called active. Not shown: some 20% with an inconclusive outcome. This is one part of a sample in which actives are shown more often than they occur.
Could you please report measured activity change, negative = inhibition for the items listed next?

Inquiry: Which activity change, negative = inhibition is reported for this molecule? Cc1cc(C(=O)N/N=C\C(Br)=C\c2ccccc2)c(C)o1
Reply text: 5.04% [at 7.66 µM] (inactive)

Inquiry: Which activity change, negative = inhibition is reported for this molecule? NS(=O)(=O)c1cccc(NC(=O)CSc2nc3ccccc3n2-c2ccccc2)c1
Reply text: 33.1% [at 7.66 µM] (inactive)

Inquiry: Which activity change, negative = inhibition is reported for this molecule? CCCCNC(=O)c1ccc(-n2c(=S)[nH]c3ccccc3c2=O)cc1
Reply text: 11.5% [at 7.66 µM] (inactive)

Inquiry: Which activity change, negative = inhibition is reported for this molecule? N#C/C(=C\c1ccc(-c2cccc([N+](=O)[O-])c2)o1)C(=O)NCCN1CCOCC1
Reply text: 31.2% [at 7.66 µM] (inactive)

Inquiry: Which activity change, negative = inhibition is reported for this molecule? O=C(NCc1ccc(Cl)cc1)NCc1ccc(Cl)cc1
Reply text: -0.855% [at 7.66 µM] (inactive)

Inquiry: Which activity change, negative = inhibition is reported for this molecule? O=S(=O)(Cc1ccccc1)c1nc2ccccc2n1Cc1ccccn1
Reply text: 0.0124% [at 7.66 µM] (inactive)

Inquiry: Which activity change, negative = inhibition is reported for this molecule? CCN(CC)CCCNC(=O)c1ccc2c(=O)n(Cc3ccc4c(c3)OCO4)c(=S)[nH]c2c1
Reply text: -18.1% [at 7.66 µM] (inactive)

====

Molecular target: Glucagon-like peptide 1 receptor (Homo sapiens)
Assay: qHTS of GLP-1 Receptor Inverse Agonists (Inhibition Mode); also: nearly all actives have a fitted effect of over 55% in size; also: potency is read from the fitted curve at half-maximal effect
Details: HEK293 GLP-1R CRE-luciferase, luminescence, 24 h, GLP-1R form is constitutively active; series mostly up to 38.3 µM
About 6,400 (1.6%) of roughly 410,000 compounds were called active. Roughly 20% stayed inconclusive and do not appear here. This excerpt belongs to a sample that is enriched for actives.
REPORTED PROPERTY: Potency

Worked cases, Potency given:
Inquiry: Which Potency is reported for this compound? O=C(c1cccs1)N1C[C@H](n2cc(C3CC3)nn2)[C@@H](O)C[C@@H]1c1ccccc1
Reply text: inactive

Inquiry: Which Potency is reported for this compound? Cc1cccn2c(=O)c3cc(C(=O)NCCN4CCOCC4)c(=N)n(Cc4cccnc4)c3nc12
Reply text: 3.98 µM (active)

Inquiry: Which Potency is reported for this compound? O=C(Nc1nnc(-c2ccc(F)cc2)s1)c1c(F)cccc1Cl
Reply text: inactive

Inquiry: Which Potency is reported for this compound? CN(C)CCNC(=O)/C(=C/c1cccc([N+](=O)[O-])c1)NC(=O)c1ccccc1
Reply text: inactive

Inquiry: Which Potency is reported for this compound? Cc1cc(C)cc(NC(=O)CSCc2cnn(-c3ccccc3)c2-n2cccc2)c1
Reply text: inactive

New cases:
Inquiry: Which Potency is reported for this compound? Cc1ccc(Oc2nc(-c3ccccn3)nc3ccccc23)cc1
Reply text: 5.01 µM (active)

Inquiry: Which Potency is reported for this compound? O=C(CNC(=O)N1CC(=O)Nc2ccccc21)Nc1ccc(Br)cc1F
Reply text: inactive

Inquiry: Which Potency is reported for this compound? Cc1ccc2nc(-c3ccccc3)c(CC3CCCCC3)n2c1
Reply text: inactive

Inquiry: Which Potency is reported for this compound? Cc1nc2ccccc2c(C(=O)O)c1-c1ccccn1
Reply text: inactive

Inquiry: Which Potency is reported for this compound? N#Cc1cccc(NC(=O)c2cc(C3CCCCN3C(=O)CCc3ccccc3)on2)c1 (stereo unspecified)
Reply text: inactive

====

Target: Glucagon-like peptide 1 receptor (Homo sapiens)
Assay: qHTS of GLP-1 Receptor Inverse Agonists (Inhibition Mode); also: nearly all actives have a fitted effect of over 55% in size
Settings: HEK293 GLP-1R CRE-luciferase, luminescence, 24 h, GLP-1R form is constitutively active; series mostly up to 38.3 µM
Hit rate of the full screen: of about 410,000 compounds, about 6,400 (1.6%) were called active. Roughly 20% stayed inconclusive and do not appear here. Calls follow the shape of the dose curve; as a rule, active = well fitted inhibition curve with a large enough effect; inconclusive = small, poorly fitted or top-dose-only effect; inactive = no such curve, though single readings can be large or run the other way. For the sample, actives were picked, then their nearest neighbours and some compounds at random.
Outcome field: choose from class 1 (active), class 0 (inactive)

Inquiry: Hello, I am checking results. What call was entered for O=C(c1ccc(Cl)cc1)c1ccc(OCC(O)CN2CCCCC2)cc1 (stereo unspecified) ?
Reply text: class 1

Inquiry: Hello, I am checking results. What call was entered for O=c1cc(CN2CCN(c3cccc(Cl)c3)CC2)c2cc3c(cc2o1)CCCC3 ?
Reply text: class 0

Inquiry: Hello, I am checking results. What call was entered for COCCNC(=O)c1cc2c(Br)ccc(Br)c2nc1N ?
Reply text: class 0

Inquiry: Hello, I am checking results. What call was entered for Cc1ccc2cccc([N+](=O)[O-])c2n1 ?
Reply text: class 0

Inquiry: Hello, I am checking results. What call was entered for CCc1cccc(C)c1NS(=O)(=O)c1cc(Br)cnc1N ?
Reply text: class 1

Inquiry: Hello, I am checking results. What call was entered for O=C(C[C@H]1CC[C@H]2[C@@H](COC[C@H](O)CN2C(=O)c2ccccn2)O1)N1CCN(c2ccccc2)CC1 ?
Reply text: class 0

Inquiry: Hello, I am checking results. What call was entered for CCc1cccc(C)c1NS(=O)(=O)c1ccc(-c2cc(C)no2)s1 ?
Reply text: class 0

Inquiry: Hello, I am checking results. What call was entered for CCOc1ccc(NS(=O)(=O)c2ccc(C(=O)NCC3CCCO3)cc2)cc1 (stereo unspecified) ?
Reply text: class 0

Inquiry: Hello, I am checking results. What call was entered for CN1/C(=c2/s/c(=C3/C(=O)N(c4ccccc4)NC3=Nc3ccccc3)n(C)c2=O)C(C)(C)c2ccccc21 ?
Reply text: class 1

Inquiry: Hello, I am checking results. What call was entered for COc1ccccc1C(CNC(=O)c1cccc(NS(=O)(=O)c2ccc(Br)cc2)c1)N(C)C (stereo unspecified) ?
Reply text: class 1

Inquiry: Hello, I am checking results. What call was entered for COc1ccc(C(CNC(=O)c2cccc(S(=O)(=O)Nc3ccc(Br)cc3)c2)N(C)C)cc1 (stereo unspecified) ?
Reply text: class 1

Inquiry: Hello, I am checking results. What call was entered for CC1CN(C(=O)c2cccc(NS(=O)(=O)c3ccc(Br)cc3)c2)CC(C)O1 (stereo unspecified) ?
Reply text: class 0

Inquiry: Hello, I am checking results. What call was entered for COc1ccc(N2CCN(S(=O)(=O)c3cc(Br)cnc3N)CC2)cc1 ?
Reply text: class 0

Inquiry: Hello, I am checking results. What call was entered for CC(=O)Nc1ccc(OCC(O)CN2CCN(c3ccccc3Cl)CC2)cc1 (stereo unspecified) ?
Reply text: class 0

Inquiry: Hello, I am checking results. What call was entered for CCOc1ccc(S(=O)(=O)Nc2ccc(C(=O)NCCCN3CCCC3=O)cc2)cc1 ?
Reply text: class 0

Inquiry: Hello, I am checking results. What call was entered for CCN(CC)CCN(C(=O)c1cccc([N+](=O)[O-])c1)c1nc2ccc(OC)cc2s1 ?
Reply text: class 0

Inquiry: Hello, I am checking results. What call was entered for OC(COc1ccc(Br)cc1)CN1CCCC1 (stereo unspecified) ?
Reply text: class 0

Inquiry: Hello, I am checking results. What call was entered for Clc1ccc(-c2cccc3nccn23)cc1 ?
Reply text: class 0

Inquiry: Hello, I am checking results. What call was entered for COc1ccc(NC(=O)C2(C)Cc3c(-c4ccc(C(N)=O)cc4)ccnc3O2)cc1 (stereo unspecified) ?
Reply text: class 0

Inquiry: Hello, I am checking results. What call was entered for CCOc1ccc(NS(=O)(=O)c2ccc(C(=O)NCC(c3ccccc3OC)N3CCCC3)cc2)cc1 (stereo unspecified) ?
Reply text: class 1

Inquiry: Hello, I am checking results. What call was entered for CN(C)C(CNC(=O)c1cccc(S(=O)(=O)Nc2ccc(Br)cc2)c1)c1ccco1 (stereo unspecified) ?
Reply text: class 1
